Parameter: Inhibition percent at IC50AbGM1-1: GD1b/AbGD1b. Scope: all listed entries.
Tested on: AbGD1b (GD1b/AbGD1b)
Format: binding
SETTINGS: peptide at its IC50 AbGM1-1; lot # D710-6
Where a SMILES comes first, the peptide text is derived from it.
The reply should contain only the number, in %.

Example results:
CC[C@H](C)[C@H](NC(=O)[C@@H](N)CCC(N)=O)C(=O)N[C@@H](CC(N)=O)C(=O)N[C@H](C(=O)N[C@@H](C)C(=O)N[C@@H](CCCCN)C(=O)N[C@@H](Cc1c[nH]c2ccccc12)C(=O)N[C@@H](Cc1c[nH]c2ccccc12)C(=O)N[C@@H](CCCCN)C(=O)N[C@H](C(=O)N[C@@H](Cc1c[nH]cn1)C(=O)N[C@@H](Cc1ccccc1)C(=O)O)[C@@H](C)O)[C@@H](C)O [PGM1-5, QINTAKWWKTHF] (H-QINTAKWWKTHF-OH): 0
CC(C)C[C@H](NC(=O)[C@H](CCCCN)NC(=O)[C@@H](NC(=O)[C@H](Cc1ccccc1)NC(=O)[C@H](Cc1c[nH]c2ccccc12)NC(=O)[C@H](C)NC(=O)[C@@H]1CCCN1C(=O)[C@@H](N)Cc1ccccc1)[C@@H](C)O)C(=O)N[C@@H](Cc1ccc(O)cc1)C(=O)N1CCC[C@H]1C(=O)N[C@@H](CCCNC(=N)N)C(=O)N[C@H](C(=O)O)[C@@H](C)O [PGM1-4, FPAWFTKLYPRT] (H-FPAWFTKLYPRT-OH): 12.1
CC(C)C[C@H](NC(=O)[C@H](CC(N)=O)NC(=O)[C@@H]1CCCN1C(=O)[C@H](Cc1ccccc1)NC(=O)[C@H](Cc1c[nH]c2ccccc12)NC(=O)[C@@H](NC(=O)[C@H](CCCCN)NC(=O)[C@H](Cc1c[nH]c2ccccc12)NC(=O)[C@H](CO)NC(=O)[C@@H](N)C(C)C)[C@@H](C)O)C(=O)N[C@@H](C)C(=O)N[C@H](C(=O)O)C(C)C [PGM1-1, VSWKTWFPNLAV] (H-VSWKTWFPNLAV-OH; N-terminus and C-terminus assumed): 32.1

## Task Need Inhibition percent at IC50AbGM1-1: GD1b/AbGD1b of CC[C@H](C)[C@H](N)C(=O)N1CCC[C@H]1C(=O)N[C@@H](CCC(N)=O)C(=O)N[C@H](C(=O)N[C@@H](Cc1c[nH]c2ccccc12)C(=O)N[C@@H](CCCNC(=N)N)C(=O)N[C@@H](CC(=O)O)C(=O)N[C@@H](Cc1c[nH]c2ccccc12)C(=O)N[C@@H](Cc1ccccc1)C(=O)N[C@@H](CCCCN)C(=O)N[C@@H](CC(C)C)C(=O)N1CCC[C@H]1C(=O)O)C(C)C [PGM1-3, IPQVWRDWFKLP] (H-IPQVWRDWFKLP-OH) , thanks.
## Result 0
